Please go through the items and note down their apparent Kd.
tested on: MS2 coat protein; experiment: apparent Kd, MS2 coat protein; higher = weaker binding; RNA-MaP array; FMN 200 µM where present; settings: ligand present: flavin mononucleotide; designed as: OFF switch for flavin mononucleotide
Answers are plain numbers, in nM.

GCGUACAUAUCAGGAUAUCAUUGUAUUGUUUAACUCAGUGUAUACAUGAGGAUCACCCAUGUUCUUGAGAAGGGAUUACUACGC :: 15.4
UAGAUGGGAGGAUAUACGUAGUUGCAGGUUCGUGUGGUGCUACAUGAGGAUCACCCAUGUAGAAGGCCCGUCUU :: 40.6
GCUGCGCGAGGAUAUGCGGUUCGCGCGGUGGCCCGUGGCGGACAUGAGGAUCACCCAUGUAGAAGGCGUGCGGG :: 12.1

Turning now to a further record.
The sequence UAGAUGGGAGGAUAUACGUAGAUGCAGAUUCGUGUGGUGCUACAUGAGGAUCACCCAUGUAGAAGGCCCGUCUU , tested on MS2 coat protein, showed apparent Kd of 98.1
